system: P. aeruginosa (CiproR); test: In vitro MIC, agar dilution; type: cell-based; conditions: Pseudomonas aeruginosa
Counter-ions that a name gives are not always drawn.

| MOLECULE | CENSORING_SIGN | MIC90 / µg/mL |
| --- | --- | --- |
| N[C@@H]1[C@H]2CN(c3nc4c(cc3F)c(=O)c(C(=O)O)cn4-c3ccc(F)cc3F)C[C@@H]12 | > | 128 |
| Cc1c(N2C[C@@H]3CCCN[C@@H]3C2)c(F)cn2c(=O)c(C(=O)O)cc(C3CC3)c12 [Example 4, hydrochloride] | = | 16 |
| C[C@@H]1CN(c2c(F)c(N)c3c(=O)c(C(=O)O)cn(C4CC4)c3c2F)C[C@H](C)N1 | = | 128 |
| O=C(O)c1cn(C2CC2)c2cc(N3CCNCC3)c(F)cc2c1=O | = | 128 |

---

system: S. epidermidis (CiproR); assay: In vitro MIC, agar dilution; type: cell-based; details: Staphylococcus epidermidis; S. epidermidis (CiproR), 11 isolates; read-out: MIC50
Where a name gives a salt, the structure may show the parent alone.

| COMPOUND | MIC50 [µg/mL] |
| --- | --- |
| N[C@@H]1[C@H]2CN(c3nc4c(cc3F)c(=O)c(C(=O)O)cn4-c3ccc(F)cc3F)C[C@@H]12 | 4 |
| NC1CCN(c2c(F)cc3c(=O)c(C(=O)O)cn(C4CC4)c3c2Cl)C1 (centres unmarked) | 0.5 |
| Cc1c(N2C[C@@H](N)C3(CC3)C2)c(F)cn2c(=O)c(C(=O)O)cc(C3CC3)c12 [Example 5, hydrochloride] | 0.25 |
| CN[C@@H]1CN(c2c(F)cn3c(=O)c(C(=O)O)cc(C4CC4)c3c2C)CC12CC2 [Example 1, hydrochloride] | 0.25 |
| C[C@@H]1CN(c2c(F)c(N)c3c(=O)c(C(=O)O)cn(C4CC4)c3c2F)C[C@H](C)N1 | 4 |

---

Quick reference: MIC of the listed items.
tested on: M. avium; test: In vitro MIC, agar dilution; type: cell-based; settings: Mycobacterium avium, read-out: MIC Range
Counter-ions that a name gives are not always drawn.

| COMPOUND | MIC |
| --- | --- |
| Cc1c(N2C[C@@H]3CCCN[C@@H]3C2)c(F)cn2c(=O)c(C(=O)O)cc(C3CC3)c12 [Example 4, hydrochloride] | 0.25 to 4 µg/mL |
| C[C@@H]1CN(c2c(F)c(N)c3c(=O)c(C(=O)O)cn(C4CC4)c3c2F)C[C@H](C)N1 | 0.5 to 16 µg/mL |
| Cc1c(N2C[C@@H](N)C3(CC3)C2)c(F)cn2c(=O)c(C(=O)O)cc(C3CC3)c12 [Example 5, hydrochloride] | 0.25 to 4 µg/mL |
| CN[C@@H]1CN(c2c(F)cn3c(=O)c(C(=O)O)cc(C4CC4)c3c2C)CC12CC2 [Example 1, hydrochloride] | 0.25 to 8 µg/mL |
